assay: Half life in rat liver microsomes at 2 uM after 10 mins by LC/MS/MS analysis; details: microsomes
resultType: half-life at 10 min, 2 µM (min)

1) CCCCCCCO[C@H]1O[C@H](CO)[C@@H](O)[C@H](O)[C@@H]1O
13

----------
assay: Lipophilicity, log P of the compound; type: physicochemical; settings: octanol/water
resultType: logP

1. OC[C@H]1O[C@H](Oc2ccc(-c3ccccc3)cc2)[C@@H](O)[C@@H](O)[C@@H]1O
2.1

----------
test: Total clearance in C3H/HeN mouse at 0.625 mg/kg, iv; format: ADME, organism-based; design: dose 0.625 mg/kg, route intravenous; conditions: in vivo
resultType: clearance

1) N#Cc1ccc(-c2ccc(O[C@H]3O[C@H](CO)[C@@H](O)[C@H](O)[C@@H]3O)c(Cl)c2)cc1
3.63 mL/min

----------
experiment: AUC (0 to infinity) in C3H/HeN mouse at 50 mg/kg, iv; format: ADME, organism-based; parameters: time infinity, dose 50 mg/kg, route intravenous; conditions: plasma
resultType: AUC(0-inf) (ng·h/mL)

1) O=C(c1ccc(-c2ccc(O[C@H]3O[C@H](CO)[C@@H](O)[C@H](O)[C@@H]3O)cc2)cc1)N1CCOCC1
25300
2) O=C(O)c1ccc(-c2ccc(O[C@H]3O[C@H](CO)[C@@H](O)[C@H](O)[C@@H]3O)cc2)cc1
23500
3) CNS(=O)(=O)c1ccc(-c2ccc(O[C@H]3O[C@H](CO)[C@@H](O)[C@H](O)[C@@H]3O)cc2)cc1
175000

----------
This listing pairs compounds with measured solubility kinetic at 15 h, 500 µM.
experiment: physchem; conditions: buffer, pH 7.4
Description: Kinetic solubility of the compound at 0.1 to 0.5 mM at pH 7.4 after 15 hrs by UV/Vis spectrophotometry
resultType: solubility kinetic at 15 h, 500 µM

1) O=C(c1ccc(-c2ccc(O[C@H]3O[C@H](CO)[C@@H](O)[C@H](O)[C@@H]3O)cc2)cc1)N1CCOCC1
> 250 µg/mL
2) OC[C@H]1O[C@H](Oc2ccc(-c3cc(F)c(O)c(F)c3)cc2)[C@@H](O)[C@@H](O)[C@@H]1O
> 150 µg/mL
3) N#CNC(=O)c1ccc(-c2ccc(O[C@H]3O[C@H](CO)[C@@H](O)[C@H](O)[C@@H]3O)cc2)cc1
> 150 µg/mL

----------
This listing pairs compounds with measured logD at 2 h, 1 µM.
assay: physchem; conditions: octanol/water, pH 7.4
resultType: logD at 2 h, 1 µM

1. NC(=O)c1ccc(-c2ccc(O[C@H]3O[C@H](CO)[C@@H](O)[C@H](O)[C@@H]3O)cc2)cc1
0.5
2. O=C(c1ccc(-c2ccc(O[C@H]3O[C@H](CO)[C@@H](O)[C@H](O)[C@@H]3O)cc2)cc1)N1CCOCC1
0.2
3. N#Cc1ccc(-c2ccc(O[C@H]3O[C@H](CO)[C@@H](O)[C@H](O)[C@@H]3O)c(Cl)c2)cc1
2.1
4. OC[C@H]1O[C@H](Oc2ccc(-c3ccccc3)cc2)[C@@H](O)[C@@H](O)[C@@H]1O
2.1

All values here come from ChEMBL document CHEMBL3414523.
